Tested on: M14
Test: NCI tumour cell line growth inhibition, 48 h
Active and inactive are the calls of the source. Cut-off read from the data, not from the text of the source: active = GI50 up to about 1.1 µM and inactive = higher.
measured quantity: GI50

Lab note: need GI50 with M14 for entry CCCCCCCCCCCCCC(=O)NCO , please look it up.
> 100 µM (inactive)

Reported GI50 for M14, given CN(C)CC(/C(Cc1ccccc1)=N\NC(=S)NN)c1ccccc1 (stereo unspecified) ?
> 100 µM (inactive)

Find the measured GI50: item Cc1nc(C(N)=S)sc1C(=O)CC(=O)C(=O)Nc1cccc(Cl)c1C , target or system M14.
> 100 µM (inactive)

Next:
Return GI50 measured with M14 given this molecule: COc1cccc(N/C(C)=C2/CCOC2=O)c1
> 10 µM (inactive)

Hi! What's the reported GI50 for CCCSc1ccc2[nH]c(N3C(=O)/C(=C/c4cc(OC)c(OC)c(OC)c4)N=C3c3ccccc3)cc2c1 on M14?
10.4 µM (inactive)

What measured GI50 is associated with C#C[C@@H](CCCC)OC(=O)N[C@H](C)c1ccccc1 on M14?
11.5 µM (inactive)
